- System: SF-539
- assay.remarks: NCI tumour cell line growth inhibition, 48 h
The source made the active and inactive calls. Rule as the data show it: active = GI50 up to about 1.1 µM and inactive = higher.
I'd be grateful if you could share measured GI50 for these entries.

Documented GI50 of Cc1nc(C(N)=S)sc1C(=O)/C=C/c1cccc(O)c1 : > 100 µM (inactive)

Sure, the documented GI50 for CC(C)(Br)C(=O)N1CCN(C(c2ccccc2)c2ccccc2)CC1 is > 100 µM (inactive)

# GI50 (molecule: C=C1[C@H]2O[C@H]2[C@@H](OC(C)=O)[C@@]2(C)[C@@H](OC(C)=O)C[C@@H](OC(=O)CCC)[C@@](C)(O)[C@@H]2[C@@H](OC(C)=O)[C@]2(O)[C@@H](C)C(=O)O[C@H]2[C@H]1Cl ) is > 100 µM (inactive)

The recorded GI50 for entry CSc1nc(NC2OC(COC(C)=O)C(OC(C)=O)C(OC(C)=O)C2OC(C)=O)c2c(n1)OCC2=O (stereo not drawn) equals > 100 µM (inactive)

Recorded GI50 (molecule OC12C3C4CC5C(C4[C@@H]1Br)C2[C@@](O)(c1c(F)c(F)c(F)c(F)c1F)C53 (stereo partly drawn) ): 56.4 µM (inactive)

The reported value for Cc1[nH]c(=O)nc(NCCNCCO)c1C(=O)Nc1c2ccccc2nc2ccccc12 in terms of GI50 is > 100 µM (inactive)

Please fill in: GI50 reported for C=C=C(CC(CC(=C)Br)(C(=O)OC)C(=O)OC)S(=O)(=O)c1ccccc1 = 1.8 µM (inactive)

What the record says about O=C(NCc1ccccc1)c1c(O)nc2ccccc2c1O : GI50 is > 100 µM (inactive)

###

Could you please report measured GI50 for the items listed next?
- Tested on: A498
- assay.remarks: NCI tumour cell line growth inhibition, 48 h
Calls of active or inactive are those of the source. No stated cut-off is given here; in the data, active = GI50 up to about 1.1 µM and inactive = higher.

Reported GI50 of CC1=CN(c2ccccc2)S2=C1c1sc3c(c1N2c1ccc(Br)cc1)CCCC3 (centres undefined) : > 100 µM (inactive)

Quick note, GI50 for COc1ccc(-n2c(C)nc3ccc(/N=C/c4ccccc4)cc3c2=O)cc1 landed at > 100 µM (inactive)

The measured GI50 associated with N#CC(NNC(=O)Cc1ccccc1)c1c(O)ccc2ccccc12 (centres undefined) reads 30.3 µM (inactive)

Record CC(C)C(Sc1nc(-c2ccccc2)c(-c2ccccc2)[nH]1)c1n[nH]c(=S)n1-c1ccccc1 (centres undefined) . Reported GI50: 43.3 µM (inactive)

Record CC(C)CCNC(=O)c1ccc(CNC(=O)/C=C/c2csc(-c3ccccc3)n2)cc1 . Reported GI50: 19.9 µM (inactive)

GI50 in this record for O=C1OC2(CCCCC2)C(Oc2ccc(Cl)cc2)=C1F : 47.3 µM (inactive)

According to the records, this compound CN(C)C(=Nc1nc(N(C)C)s[s+]1)N(C)C displays GI50 of > 100 µM (inactive)

The recorded GI50 for entry CCOC(=O)c1c(C)c(C)n2c1NC(=O)C2 equals > 100 µM (inactive)

Form field GI50, entry COC(=O)c1sc(C(=O)OC)c2c1CSC2 : > 91 µM (inactive)

###

- Test system: MDA-N
- assay.remarks: NCI tumour cell line growth inhibition, 48 h
Calls of active or inactive are those of the source. No stated cut-off is given here; in the data, active = GI50 up to about 1.1 µM and inactive = higher.
measurement.kind: GI50

Briefly, GI50 measured for CN(C)CCCNC(=O)c1c(O)c2ccccc2[nH]c1=O : > 100 µM (inactive)

Entry N=C(N)Nc1ccc(CC(N)C(=O)O)cc1 (stereo unspecified) ; GI50 = > 12.5 µM (inactive)

According to the records, this molecule N#CC(NNC(=O)Cc1ccccc1)c1c(O)ccc2ccccc12 (stereo unspecified) displays GI50 of 7.5 µM (inactive)

Recorded GI50 (molecule Cc1ccc2c(O)cc(-c3ccc(F)cc3)nc2n1 ): 12.1 µM (inactive)

According to the records, this molecule CC(C)Nc1n[nH]c(=O)n1C(C)C displays GI50 of > 100 µM (inactive)

Cc1ccc2sc3ccc(N)cc3c(=O)c2c1 has a reported GI50 of 26.8 µM (inactive)

Memo: COc1ccccc1-n1nnc2c(N)nc(N)nc21 , reported GI50: > 100 µM (inactive)

Lookup result for COc1ccc(C(=O)/C=C2\C(=O)Nc3ccc(Br)cc32)cc1 ; measured GI50: 5.81 µM (inactive)

For this molecule ( N#CC1=C(N)OC2=C(CCCc3ccccc32)C1c1ccc([N+](=O)[O-])cc1 (stereo unspecified) ), measured GI50 is 15.9 µM (inactive)

Looking up CCN(CC)c1ccc2nc3ccc(/N=N/c4c(O)ccc5ccccc45)cc3[n+](-c3ccccc3)c2c1 , I see its GI50 listed as > 100 µM (inactive)

GI50 reported for this molecule O=C1C=C2CO[C@H]3OC[C@H](O)[C@@H]1[C@@H]23 : 35.2 µM (inactive)

###

- Test system: KM-20L2
- assay.remarks: NCI tumour cell line growth inhibition, 48 h
Activity calls are given as the source filed them. Cut-off read from the data, not from the text of the source: active = GI50 up to about 1.1 µM and inactive = higher.
measurement.kind: GI50

GI50 for N#CC1=C(c2ccccc2)NN(Cc2ccccc2)C(c2ccc(Cl)cc2)CC1=O (stereo not given) is 20.8 µM (inactive)

The recorded GI50 for COc1cc2c(cc1OC)[C@H]1CN3CCC[C@H]3C=C1c1ccc(OC)c(O)c1-2 is < 0.0001 µM (active)

GI50 recorded for this molecule, Cn1c(CBr)nc2c1C(=O)c1nc(CBr)[nH]c(=O)c1C2=O , is 46.1 µM (inactive)

// GI50 lookup, molecule = O=C(O)CC[C@H](NC(=O)c1ccc(-n2nc3ccc(=O)cc-3[nH]c2=O)cc1)C(=O)O , result: > 100 µM (inactive)

The measured GI50 associated with O=[N+]([O-])c1cccc2nc3ccccc3c(NCCN(CCO)CCO)c12 reads 0.00509 µM (active)

The molecule listed as CC1CC(c2ccc([N+](=O)[O-])cc2)=Nc2ccccc2[S+]1[O-] (stereo not given) has a reported GI50 of 16.1 µM (inactive)

What the record says about CC#CC1C(OC(=O)c2ccccc2)CCCC1(CI)N=[N+]=[N-] (stereo not given) : GI50 is 60.7 µM (inactive)

Kindly note the recorded GI50 for COc1ccc(/C=C2\Cc3ccccc3C2=O)cc1OC , which is > 100 µM (inactive)

Documented GI50 of COc1cc(/C=C\c2ccccc2)cc(OC)c1OC : 1.64 µM (inactive)

Given item COc1cc([C@@H]2c3cc4c(cc3C[C@H]3COC(=O)[C@@H]32)OCO4)cc(OC)c1OC [DESOXYPODOPHYLLOTOXIN] , the value recorded as its GI50 is 0.00703 µM (active)

###

- System: SK-OV-3
- assay.remarks: NCI tumour cell line growth inhibition, 48 h
The source made the active and inactive calls. No stated cut-off is given here; in the data, active = GI50 up to about 1.1 µM and inactive = higher.
Tick one outcome: active, inactive

Incoming: What call does the record list for O=[N+]([O-])C[C@@]12O[C@]3(O)C4C5CC(C6C5C3C61)C42 (some centres undefined) ?
Outgoing: inactive

Incoming: Kindly provide the recorded test outcome for the following compound: CSc1c(C#N)c(S)n(-c2ccc(Cl)cc2)c(=O)c1C#N
Outgoing: inactive

Incoming: Tell me the recorded outcome of this test for Fc1ccc(C(OCCN2CCC3CCC(C2)N3CCCc2ccccc2)c2ccc(F)cc2)cc1 (centres undefined) .
Outgoing: inactive

Incoming: Record request — test call for COC(=O)C1=C(O)C(C(=O)OC)[C@]2(O)[C@H](C(=O)OC)[C@H]1C[C@@H](c1ccc(C(F)(F)F)cc1)[C@H]2C(=O)OC (some centres undefined)
Outgoing: inactive

Incoming: Assay outcome for COc1cc(OC)cc(N2CCC(c3c(N)nc(N)nc3Cl)CC2)c1 : what was it?
Outgoing: inactive

Incoming: Please state the recorded outcome for this compound: S=C(N/N=C/c1ccccn1)N1CCCCC1
Outgoing: active

Incoming: State the result this test recorded for Cc1ccc(S(=O)(=O)NC(=O)C2S(=O)(=O)OCCOS2(=O)=O)cc1 .
Outgoing: inactive

Incoming: Test call for this compound, please: CC[n+]1cnc(N)c2c(-c3ccc(Cl)cc3)cn(-c3ccc(C)cc3)c21
Outgoing: inactive

Incoming: Can you look up the reported call for COC(=O)/C(=C/CC(N=C(c1ccccc1)c1ccccc1)C(=O)OC)N=C(c1ccccc1)c1ccccc1 (centres undefined) for me?
Outgoing: inactive

###

- Tested on: OVCAR-3
- assay.remarks: NCI tumour cell line growth inhibition, 48 h
Active and inactive are the calls of the source. No stated cut-off is given here; in the data, active = GI50 up to about 1.1 µM and inactive = higher.
Kindly supply the reported GI50 values for the records listed here.

O=C(NCc1ccccc1)c1c(O)nc2ccccc2c1O yielded GI50 of > 100 µM (inactive)

GI50 for N#CCCSC(=S)C1CCCC1=N (configuration not stated) is > 100 µM (inactive)

Reported GI50 for c1ccc(CCN2CCN=C2Cc2ccccc2)cc1 was 71.3 µM (inactive)

Reported GI50 of COC(=O)N/N=C(\C)CC(=O)Nc1ccc(Cl)cc1 : > 100 µM (inactive)

response.value for N#C/C(=C1\SC(/N=N/c2ccc(Cl)cc2)C(=O)N1c1ccccc1)c1nc2ccccc2[nH]1 (configuration not stated) (field: GI50) = 17.1 µM (inactive)

For this compound ( C/C=C1/CN2CCC34C5=CC(=O)C(c6cc7c(cc6OC)N(C)C6=C(C(=O)OC)CC8(CC)CCCN9CCC67C98)=CC5=NC23CCC1C4C(=O)OC (configuration not stated) ), measured GI50 is 14.3 µM (inactive)

GI50 reported for this compound CCOc1ccc(N/C(=C(/C(Cl)=C(/Cl)NCCN)[N+](=O)[O-])n2nnc3ccccc32)cc1 : 13 µM (inactive)

Lab book: GI50 of CC(=O)O[C@H]1C(=O)[C@@]2(C)[C@H]([C@H](OC(=O)c3ccncc3)[C@]3(O)C[C@H](OC(=O)[C@H](O)[C@@H](NC(=O)c4ccccc4)c4ccccc4)C(C)=C1C3(C)C)[C@]1(OC(C)=O)CO[C@@H]1C[C@@H]2O noted as 1.25 µM (inactive)

Lab book: GI50 of COC1(C)OC[C@@]2(C)OC(C)C1(C)C2O[Si](C(C)C)(C(C)C)C(C)C (some centres not stated) noted as 20.9 µM (inactive)

Memo: COc1ccc(/C=C/C(=O)C(C)(C)C)cc1OC , reported GI50: 64.7 µM (inactive)

GI50 for C=C1C(=O)O[C@H]2[C@@H]3O[C@@](C)(CC/C=C(\C)CCC[C@@H]2C)[C@H](O)C[C@@H]13 is 2.59 µM (inactive)

Documented GI50 of C=C1[C@H]2O[C@H]2[C@@H](OC(C)=O)[C@@]2(C)[C@@H](OC(C)=O)C[C@@H](OC(=O)CCC)[C@@](C)(O)[C@@H]2[C@@H](OC(C)=O)[C@]2(O)[C@@H](C)C(=O)O[C@H]2[C@H]1Cl : > 100 µM (inactive)

GI50 recorded for this compound, CCCCCCCCCCCCCCCCOC[C@H](COC(c1ccccc1)(c1ccccc1)c1ccccc1)O[PH](=S)OC (some centres not stated) , is > 100 µM (inactive)

The reported value for Cc1ccc(-c2c(C#N)c(N)[nH]c(=S)c2C#N)cc1 in terms of GI50 is 35.2 µM (inactive)

Consider CCOC(=O)[C@H](Cc1ccccc1)NC(=O)c1nc[nH]c1[N+](=O)[O-] . Its measured GI50 is > 100 µM (inactive)

The compound listed as C=CC[P@@]1(=O)O[C@H](c2ccccc2)C(C)N1C(C)C (some centres not stated) has a reported GI50 of > 100 µM (inactive)

# compound CC1=NN(c2ccccc2)C(=O)/C1=C/c1ccc(O)cc1 ; its GI50 = > 100 µM (inactive)

Source of measurements: ChEMBL document CHEMBL1201862
